# SYSTEM: androgen receptor (AR) (Homo sapiens, UniProt P10275)
# Sequence (P10275 whole entry): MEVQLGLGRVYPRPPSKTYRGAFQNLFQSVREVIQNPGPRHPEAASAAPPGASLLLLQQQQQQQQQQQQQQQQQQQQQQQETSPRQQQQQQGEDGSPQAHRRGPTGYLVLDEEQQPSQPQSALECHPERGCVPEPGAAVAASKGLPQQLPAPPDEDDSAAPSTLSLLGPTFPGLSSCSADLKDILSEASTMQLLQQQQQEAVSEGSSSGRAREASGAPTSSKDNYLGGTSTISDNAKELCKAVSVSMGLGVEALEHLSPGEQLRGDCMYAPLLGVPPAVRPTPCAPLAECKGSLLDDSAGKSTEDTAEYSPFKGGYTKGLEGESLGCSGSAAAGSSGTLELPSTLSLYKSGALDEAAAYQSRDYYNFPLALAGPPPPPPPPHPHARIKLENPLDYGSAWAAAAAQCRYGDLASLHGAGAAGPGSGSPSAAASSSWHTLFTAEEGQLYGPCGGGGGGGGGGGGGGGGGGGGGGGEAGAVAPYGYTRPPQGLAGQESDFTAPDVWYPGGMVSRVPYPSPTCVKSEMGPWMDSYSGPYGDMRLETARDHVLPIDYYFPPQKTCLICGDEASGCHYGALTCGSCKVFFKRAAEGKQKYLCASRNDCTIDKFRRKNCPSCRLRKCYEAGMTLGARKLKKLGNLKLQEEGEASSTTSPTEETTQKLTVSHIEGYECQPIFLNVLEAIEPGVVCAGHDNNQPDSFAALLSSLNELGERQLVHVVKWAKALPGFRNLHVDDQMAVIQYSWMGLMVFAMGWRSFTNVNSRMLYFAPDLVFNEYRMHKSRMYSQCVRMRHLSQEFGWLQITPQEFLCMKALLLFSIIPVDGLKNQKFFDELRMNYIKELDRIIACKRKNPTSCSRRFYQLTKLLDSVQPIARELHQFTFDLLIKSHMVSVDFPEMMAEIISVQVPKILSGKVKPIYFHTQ
# MEASUREMENT_DESCRIPTION: Degradation of androgen receptor (AR) protein in VCaP cells by ELISA
# Type: cell-based
# CONDITION: percentage of degraded AR at 100 nM, VCaP cells, 16 h, ELISA; read-out: % degradation
ASSAY_ENDPOINT: inhibition at 0.1 µM

Known inhibition at 0.1 µM results, listed for orientation:
[
  {
    "COMPOUND": "Cc1ncsc1-c1ccc([C@H](C)NC(=O)[C@@H]2C[C@@H](O)CN2C(=O)[C@@H](NC(=O)COCCCN2CCN(c3ccc4c(c3)CN(C3C(C)(C)C(Oc5ccc(C#N)c(Cl)c5)C3(C)C)C4=O)CC2)C(C)(C)C)cc1 (stereo partly shown)",
    "inhibition at 0.1 µM": "50 to 79%"
  },
  {
    "COMPOUND": "CC1(C)[C@H](Oc2ccc(C#N)c(Cl)c2)C(C)(C)[C@H]1N1Cc2cc(C#CC3CCN(C4CCN(c5cc6c(cc5F)C(=O)N(C5CCC(=O)NC5=O)C6=O)CC4)CC3)ccc2C1=O (stereo partly shown)",
    "inhibition at 0.1 µM": "50 to 79%"
  },
  {
    "COMPOUND": "CC(=O)O[C@@H]1CC(C(=O)N[C@@H](C)c2ccc(-c3scnc3C)cc2)N(C(=O)[C@@H](NC(=O)COCCN2CCN(c3ccc4c(c3)CN([C@H]3C(C)(C)[C@H](Oc5ccc(C#N)c(Cl)c5)C3(C)C)C4=O)CC2)C(C)(C)C)C1 (stereo partly shown)",
    "inhibition at 0.1 µM": "< 25%"
  },
  {
    "COMPOUND": "[2H]C([2H])([2H])N(C(=O)c1ccc(N2CCC(CN3CCN(c4cc5c(cc4F)CN(C4CCC(=O)NC4=O)C5=O)CC3)CC2)nc1)[C@H]1C(C)(C)[C@H](Oc2ccc(C#N)c(Cl)c2)C1(C)C (stereo partly shown)",
    "inhibition at 0.1 µM": "< 25%"
  },
  {
    "COMPOUND": "N#Cc1ccc(O[C@H]2CC[C@H](N3Cc4nc(N5CCC(OC6CCN(c7ccc8c(c7)C(=O)N(C7CCC(=O)NC7=O)C8=O)CC6)CC5)ccc4C3=O)CC2)cc1Cl (stereo partly shown)",
    "inhibition at 0.1 µM": "< 25%"
  },
  {
    "COMPOUND": "Cc1ncsc1-c1ccc(C2(NC(=O)C3C[C@@H](O)CN3C(=O)[C@@H](NC(=O)COCCCCCNc3ccc(C(=O)N[C@H]4C(C)(C)[C@H](Oc5ccc(C#N)c(Cl)c5)C4(C)C)cc3)C(C)(C)C)CC2)cc1 (stereo partly shown)",
    "inhibition at 0.1 µM": "50 to 79%"
  },
  {
    "COMPOUND": "CC1(C)[C@H](Oc2ccc(C#N)c(Cl)c2)C(C)(C)[C@H]1N1Cc2nc(N3CCC(CN4CCN(c5cc6c(cc5F)C(=O)N(C5CCC(=O)NC5=O)C6=O)CC4)CC3)ccc2C1=O (stereo partly shown)",
    "inhibition at 0.1 µM": "50 to 79%"
  },
  {
    "COMPOUND": "CC(=O)O[C@@H]1C[C@@H](C(=O)N[C@@H](C)c2ccc(-c3scnc3C)cc2)N(C(=O)[C@@H](NC(=O)COCCCCCNc2ccc3c(c2)C(=O)N([C@H]2C(C)(C)[C@H](Oc4ccc(C#N)c(Cl)c4)C2(C)C)C3)C(C)(C)C)C1",
    "inhibition at 0.1 µM": "50 to 79%"
  }
]

Quick batch: inhibition at 0.1 µM for everything below.
1. N#Cc1ccc(O[C@H]2CC[C@H](N3Cc4nc(N5CCN(CC6CCN(c7cc8c(cc7F)C(=O)N(C7CCC(=O)NC7=O)C8=O)CC6)CC5)ccc4C3=O)CC2)cc1Cl (stereo partly shown)
2. CC(=O)O[C@@H]1C[C@@H](C(=O)N[C@@H](C)c2ccc(-c3scnc3C)cc2)N(C(=O)[C@@H](NC(=O)COCCOCC#Cc2ccc3c(c2)CN([C@H]2C(C)(C)[C@H](Oc4ccc(C#N)c(Cl)c4)C2(C)C)C3=O)C(C)(C)C)C1

Reply text:
1. < 25%
2. 50 to 79%
